# ASSAY PROTOCOL: Solubility enhancement of MSU crystals in phosphate buffered saline (Examples 2A, 2B)
# Type: physicochemical
# TEST CONDITIONS: Table 3; 1% solubility enhancer in PBS
READOUT KIND: % vs control (%)
Give bare numbers, in %.

Required: % vs control, one value per compound below.
1. O=C(O)c1ccc(O)cc1 [4-hydroxybenzoic acid]
2. OCc1ccc(O)cc1 [4-hydroxybenzyl alcohol]
3. CCCCCCCC/C=C\CCCCCCCC(=O)O
4. O=C(O)c1ccccc1

### Response
[205, 151, 118, 159]

###

# ASSAY PROTOCOL: Solubility enhancement of MSU crystals in aqueous NaCl solution (Example 1)
# Format: physicochemical
# TEST CONDITIONS: 2.5 mL enhancer + 2.5 mL NaCl solution, 16 h; control (water only) = 100%
Decide by % vs control: equal to or exceeding 200% means t, less means f.

Solved cases (3 shown):
> print(dat)
                                   compound  cat
1                                  OCC(O)CO    f
2                CC(O)CO (centres unmarked)    f
3  CC(=O)OC/C=C(\C)CCC=C(C)C [Geranyl acetate]    t

Now consider the entry below.
### Prompt # check: % vs control of O=C(O)/C=C/C(=O)O is greater than or equal to 200%
### Response f

###

Consider the following molecules; for each one, report its % vs control.
# ASSAY PROTOCOL: Solubility enhancement of MSU crystals in phosphate buffered saline (Examples 2A, 2B)
# Assay type: physicochemical
# TEST CONDITIONS: Table 3; 5% by volume solubility enhancer in PBS
Write the numeric value and follow it with the unit.

// solved cases for % vs control follow
> print(dat)
                                   molecule  readout.kind  value
1    CC(=O)OCC(COC(C)=O)OC(C)=O [Triacetin]  % vs control   113%
2  O=C(O)c1ccc(O)cc1 [4-hydroxybenzoic acid]  % vs control   241%
3   OCc1ccc(O)cc1 [4-hydroxybenzyl alcohol]  % vs control   190%

### Prompt Find the recorded % vs control belonging to O=C(O)c1ccccc1 [Benzoic acid] and report it.
### Response 189%

Values from patent US20210077420A1
